- System: PEG-3
- Assay Text: Peg3 promoter luciferase inhibitors, potency, dose response, cell-based, HeLa, CREF/GAPDH counter-screen panel (AID 624167)
- Settings: HeLa PEG-Prom luciferase reporter, overnight, CREF/GAPDH counter-screens, run 1, dose range 1, individual replicate IC50 per panel
Note to self: IC50 under 10 µM means MET, ties and anything higher get NOT MET.

Does this compound meet the criterion IC50 < 10 µM? O=C(Nc1cccc(C(=O)O)c1)Nc1ccc2c(c1)OCO2
MET

Same thing, different compound: Cc1ccc(NC(=S)NC(=O)c2ccc(F)cc2)cc1S(=O)(=O)Nc1ccccc1Cl
MET

COC(=O)c1cn(NC(=O)c2cc([N+](=O)[O-])ccc2F)c(=O)c2ccccc12 ?
NOT MET

Same question for CCCN(CC(=O)Nc1cc(Cl)cc(Cl)c1)CC(=O)Nc1ccc(F)c(F)c1F please.
NOT MET

What would you report for O=C(Nc1ccc([N+](=O)[O-])cc1)C(=O)Nc1cccc(C(=O)O)c1 ?
MET

Now the compound CC(=O)N1CCN(c2cc(-c3ccccc3)nc3cc(-c4cccc(Cl)c4)nn23)CC1
NOT MET

And then Clc1ccccc1/C=C/c1nc(-c2ccccn2)no1 , what is it?
MET

Please give the result for O=C(C[C@H]1C[C@H](C(=O)N2CCCCC2)[C@@]2(CCc3ccccc3)c3[nH]c4ccc(Cl)cc4c3CCN2C1=O)NCCc1ccccn1 too.
NOT MET

Now consider O=C(/C=C/c1cc(Br)ccc1O)c1ccco1 and answer again.
NOT MET

---

- Subject Of Test: UniProt Q6IN02
- Sequence (Q6IN02 whole entry, looked up): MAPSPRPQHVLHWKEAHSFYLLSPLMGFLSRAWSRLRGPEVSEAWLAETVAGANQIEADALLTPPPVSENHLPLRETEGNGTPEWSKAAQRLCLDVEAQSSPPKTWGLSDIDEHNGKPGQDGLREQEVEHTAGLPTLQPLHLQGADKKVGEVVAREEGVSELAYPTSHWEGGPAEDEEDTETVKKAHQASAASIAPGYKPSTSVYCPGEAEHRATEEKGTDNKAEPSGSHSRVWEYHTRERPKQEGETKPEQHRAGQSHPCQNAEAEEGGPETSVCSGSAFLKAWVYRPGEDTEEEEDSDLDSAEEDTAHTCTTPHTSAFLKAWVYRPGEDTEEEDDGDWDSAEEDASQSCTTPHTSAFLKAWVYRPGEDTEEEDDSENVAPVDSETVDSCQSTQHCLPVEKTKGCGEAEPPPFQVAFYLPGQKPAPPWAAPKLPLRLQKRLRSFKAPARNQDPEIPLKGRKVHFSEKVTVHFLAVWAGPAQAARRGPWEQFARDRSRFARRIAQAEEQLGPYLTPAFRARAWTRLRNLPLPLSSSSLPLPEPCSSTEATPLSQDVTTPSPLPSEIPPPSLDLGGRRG
- Assay Text: Peg3 promoter luciferase inhibitors, potency, dose response, cell-based, HeLa, CREF/GAPDH counter-screen panel (AID 624167)
- Settings: HeLa PEG-Prom luciferase reporter, overnight, CREF/GAPDH counter-screens, mean of runs
Active and inactive are the calls of the source.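 Rule for the calls: active = mean IC50 for reducing PEG3 promoter reporter signal at or below a set limit, with IC50 above the limit in both counter screens; inactive = the rest, including counter screen hits.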
Bench note: report the call from true (1) for active, false (0) for inactive

What did this assay record as the result for COc1cccc(C(=O)c2sc(NC(C)C)nc2N)c1 ?
true (1)

Then CN(Cc1ccccc1F)C(=O)C(Cc1ccccc1)NC(=O)c1ccccc1 (stereo not drawn) ?
false (0)

Please do the same for CCC1(c2ccccc2)NC(=O)N(CC(=O)Nc2cc(S(=O)(=O)N3CCCCCC3)ccc2OC)C1=O (stereo not drawn) as well.
true (1)

Same again, this time with COc1ccc(/C=C2\SC(=S)N(CCCC(=O)NNC(=O)c3ccccc3O)C2=O)cc1
true (1)

Now consider COc1cc(/C=C/c2ccc3cccc(O)c3n2)c(Br)cc1O and answer again.
false (0)

Field entry: COc1cccc(Nc2nc(C(N)Cc3ccccc3)cs2)n1 (stereo not drawn)
true (1)

Same for CCCC(=O)NC(c1ccccc1)c1ccc2cccnc2c1O (stereo not drawn)
true (1)

Same question, O=C(Nc1ccccn1)c1cc2ccccc2o1 this time
true (1)

Then what about the compound CCOC(=O)c1cnc2c(cnn2C)c1NCCCN(C)C ?
false (0)

Follow-up entry: CCN(CC)CCNc1cccc2sc3ccccc3c(=O)c12
false (0)

Now the compound CC1(Cc2ccc(Cl)c(Cl)c2)C(=O)Nc2ccc(S(=O)(=O)NC3CCCCC3)cc21 (stereo not drawn)
true (1)

And the next one, CCc1ccc(/C=C2\SC(=S)N(CCCC(=O)Nc3ccccn3)C2=O)cc1 ?
true (1)

Same for Cc1cc(Cl)n2ncc(-c3ccccc3)c2n1
false (0)

Quick one: COc1ccc(CNCCC(c2ccccc2)c2ccc(OC(C)C)cc2)cc1OC (stereo not drawn)
true (1)

Now consider CCCCNC(=O)C(C)N(CCN(C)C)C(=O)CCCCCN1C(=O)NC(c2ccc(Cl)cc2)C(C(=O)OCc2ccccc2)=C1C (stereo not drawn) .
true (1)

Do the same for CSc1ccc2c(c1)C(N1CCN(C)CC1)Cc1ccccc1S2 (stereo not drawn) please
true (1)

NC(C(=O)O)C1ON=C(Cl)C1O (stereo not drawn) , same question.
true (1)

Now the compound COc1ccc(-c2cc3nc(C)n(N)c(=O)c3s2)cc1
true (1)

// query: O=c1[nH]c(=S)[nH]c(O)c1/C=C1\C=Nc2ccccc21
false (0)

Proceed to C/C(=N/NC(=O)c1cc(C2CC2)[nH]n1)c1cccs1
true (1)

Same thing, different compound: CCOC(=O)c1c(NC(C)=O)sc2c(OCC(O)CN(CC)CC)c(Br)ccc12 (stereo not drawn)
true (1)

Another compound to check: O=C(OCC(F)(F)F)c1cccc(COc2ccc3ccccc3c2)c1
true (1)

Check O=C1NC(=S)N(c2ccccc2F)C(=O)/C1=C\c1cccs1 too.
true (1)
